// provenance: PubChem BioAssay (NCI)

# Tested on: HOP-92 NSCLC
# RUN_DESCRIPTION: NCI-60 one-dose screen, 48 h (100 = growth as untreated, 0 = no growth, -100 = all killed)
# TEST_SETTINGS: 10 µM unless noted
The panel holds about 83,000 compounds, 20% with a hit somewhere; the sample as a whole holds those more often.
Consider the following molecules; for each one, report its growth.
Answers are plain numbers, in %.

MOLECULE: Clc1ccc(-c2nc(Br)cn3ccnc23)cc1
MEAS_VALUE: 53.6

List the reported growth of each molecule below.
1. CCOc1c(C#N)c2c(N)ncnc2n1C1OC(CO)C(O)C1O (configuration not stated)
2. CNCCCNc1ccnc2cc(Cl)ccc12
3. Nc1nc(N)c2c(n1)NC(c1sc(Cl)nc1Cl)CC(c1ccc3c(c1)OCO3)=N2 (configuration not stated)
4. CCc1ccc(-c2ccc(NC3CCCCCC3)nn2)cc1S(N)(=O)=O
5. COc1ccc(/C=C2\CCCC3=C2N=C2SC(C)=NN2C3c2ccc(OC)c(OC)c2)cc1OC (configuration not stated)
6. C[C@@H]1C[C@H](N)C[C@H](c2ccncc2NC(=O)c2ccc(F)c(-c3c(F)cccc3F)n2)C1
7. N#CC1=C(N)Oc2nc[nH]c(=O)c2C1c1cccs1 (configuration not stated)
8. O=C(Nc1ccc2ncnc(Nc3ccc(F)c(Cl)c3)c2c1)c1cccs1

Reply:
1: 50.1; 2: -17.9; 3: 56; 4: 94.2; 5: 37.2; 6: 10.4; 7: 102; 8: 38

Please look at the items below and tell me growth for each one, in order.
1. O=C(Oc1c(Cl)c(Cl)c(Cl)c(Cl)c1Cl)C1CCCN1C(=O)OCc1ccccc1 (configuration not stated)
2. N#Cc1ccc(NC(=O)Nc2nc3ccc(OC(F)(F)F)cc3s2)cc1
3. COc1ccc(/C(=C\c2cc(OC)c(OC)c(OC)c2)C(=O)N2CCCNCC2)cc1
4. COc1ccccc1/C=N\NC(=S)Nc1ccc(F)cc1
5. C=CCn1c(C)nc2cc(Nc3nc(N4CCCC4)nc4nc[nH]c34)ccc21

Reply:
[-0.576, -13.1, 102, 71, -39.5]

List reported growth for each of these molecules:
1. CCOC(=O)NNc1cccc(Cl)c1
2. CC(C)N=C1CCCC1C(=S)SSC(=S)C1CCCC1=NC(C)C (configuration not stated)
3. COCCOCCOCc1n(Cc2ccc3ccccc3n2)c2ccccc2[n+]1Cc1ccc2ccccc2c1
4. COc1cc(C2=NOC(c3cc(OC)c(OC)c(OC)c3)C2)ccc1OCCCCOc1cc2c(cc1OC)C(=O)N1CCC[C@H]1C=N2 (some centres not stated)
5. CCN(CC)CCCC(C)Nc1cnc(C(=O)Nc2cc(C)cc3cccnc23)cn1 (configuration not stated)
6. FC(F)(F)c1ccc(/C=N/Nc2nnc3n2N=C(c2ccc(Cl)cc2)CS3)cc1

Reply:
87.5
103
-18.2
-29.3
51.4
3.52

Quick request: growth for each listed item, please.
1. CCOC(=O)Nc1ccc2nc(-c3cscn3)[nH]c2c1
2. O=c1[nH]cnc2nc[nH]c12

Reply:
1: 114; 2: 104

###

# Test system: SK-MEL-2 melanoma
# RUN_DESCRIPTION: NCI-60 one-dose screen, 48 h (100 = growth as untreated, 0 = no growth, -100 = all killed)
# TEST_SETTINGS: 10 µM unless noted
The panel holds about 83,000 compounds, 20% with a hit somewhere; the sample as a whole holds those more often.
Kindly supply the reported growth values for the records listed here.
Numbers only, in %.

Solved entries (count: 8):
COMPOUND: CCN(CC)CCNc1c(C)cc(CO)c(Cl)c1C
growth (%): 112

COMPOUND: SCc1ccc(CS)cc1
growth (%): 108

COMPOUND: CC(C)(C)NC(=O)C(OC(=O)C1CCc2cc(F)ccc2O1)c1ccccc1Cl (stereo not given)
growth (%): 102

COMPOUND: COc1ccc2[nH]c(C(=O)OCc3ccc4c(Br)cc(Br)c(O)c4n3)cc2c1
growth (%): -40.3

COMPOUND: CCCCn1c(-c2ccc(F)cc2)nc2cc(OC)c(OC)cc2c1=O
growth (%): 176

COMPOUND: COc1cc2nccc(Oc3ccc(NC(=O)C4(C(=O)Nc5c(F)cc(F)cc5F)CC4)cc3)c2cc1Oc1ccc(N)cn1
growth (%): 81.5

COMPOUND: CN(CCO)c1ccc(N2Cc3ccccc3OC3=C2C(=O)c2c(O)ccc(O)c2C3=O)cn1
growth (%): -54.4

COMPOUND: COc1cccc(/C=N/N=C(N)N)c1
growth (%): 107

Please look at the items below and tell me growth for each one, in order.
1. CN(C)c1ccc(N2Cc3ccccc3OC3=C2C(=O)c2c(O)ccc(O)c2C3=O)cn1
2. CCOP(=O)(O)OP(=O)(O)OCC
3. C=C(C)[C@@H]1CC[C@]2(C)[C@H](CC=C3[C@@H]4C[C@](C)(C(=O)N5CCN(C)CC5)CC[C@]4(C)CC[C@]32C)[C@@]1(C)CCC#N
4. COc1ccccc1/C=N\NC(=S)Nc1ccc(F)cc1

Reply:
-51.5
128
76.4
81

###

# Tested on: BT-549 breast
# RUN_DESCRIPTION: NCI-60 one-dose screen, 48 h
# TEST_SETTINGS: 10 µM unless noted
# Protocol: Growth inhibition of the BT-549 human tumor cell line is measured as a screen for anti-cancer activity. Cells are grown in 96 well plates and exposed to the test compound for 48 hours. Compounds are tested at a single concentration, which is 10^-5 M for most compounds. The reported endpoint is percent growth (GI% or GIPRCNT), where numbers from 0 - 100% represent growth inhibition, and numbers from -100% - 0 represent cell death. For example, a value of 40 represents 60% growth inhibition. […]
Compounds without any hit were thinned out: in the full panel of roughly 83,000, 20% have a hit. The source made the active and inactive calls. The calls were made as follows: active = growth percent below 10; inactive = the rest.
Could you please pick one outcome from this set? active, inactive

Please review the following examples before continuing.
CHEMICAL_STRING: O=C(C=P(c1ccccc1)(c1ccccc1)c1ccccc1)CCl
CAT: active
--
CHEMICAL_STRING: O=c1c2sc3ncc(Cl)cc3c2nnn1-c1cccc(Cl)c1
CAT: inactive
--
CHEMICAL_STRING: COc1ccc(/C=C2\Cc3c(Br)cccc3C2=O)c(OC)c1
CAT: inactive
--
CHEMICAL_STRING: COc1ccc(-c2oc(=O)ccc2-c2cc(OC)c(OC)c(OC)c2)cc1F
CAT: inactive

Now look at this entry.
Query: Per the assay record, what outcome was assigned to `Nc1nc2ccc([C@@H]3Nc4ccc5[nH]ncc5c4[C@H]4[C@H]5CCC(C5)[C@H]43)cc2s1` ?
Reply: inactive

###

Field: growth. Provide a value for each of the molecules that follow.
# Test system: MALME-3M melanoma
# RUN_DESCRIPTION: NCI-60 one-dose screen, 48 h (100 = growth as untreated, 0 = no growth, -100 = all killed)
# TEST_SETTINGS: 10 µM unless noted
About 83,000 compounds went through this panel and 20% of them were active in at least one assay; those are over-represented in the sample as a whole.
One number for each entry, in %.

Example cases with answers are listed next.
MOLECULE: COc1cc(NCCCCC(C)N)c2nccc(C)c2c1 (centres undefined)
growth (%): 98
//
MOLECULE: COc1cc(C2=NOC(c3cc(OC)c(OC)c(OC)c3)C2)ccc1OCCCCOc1cc2c(cc1OC)C(=O)N1CCC[C@H]1C=N2 (some centres undefined)
growth (%): -72.2
//
MOLECULE: COc1cc(Nc2ccnc3ccc(Br)cc23)cc(OC)c1OC
growth (%): 46.7
//
MOLECULE: COC(=O)CNS(=O)(=O)c1ccc2c(c1)Cc1cc(S(=O)(=O)NCC(=O)OC)ccc1-2
growth (%): 100
//
MOLECULE: C#CC[C@@H]1C[C@]2(C)[C@H]3CC[C@@H]4[C@H]5C(C(=C)C)CC[C@]5(C(=O)NCCCN5CCN(CCCN)CC5)CC[C@@]4(C)[C@]3(C)CC[C@H]2C(C)(C)[C@H]1OC(C)=O (some centres undefined)
growth (%): 67.8

Lab note: each molecule below needs its growth filled in.
1. COC1CC(N)C2OC(c3ccccc3)OCC2O1 (centres undefined)
2. C=CCn1c(C)nc2cc(Nc3nc(N4CCCC4)nc4nc[nH]c34)ccc21
3. CCCCCCCCCCCCCCCC1=NCC[N+]1(CCO)CCO
4. Cn1nc(C(F)(F)F)cc1-c1c[nH]c(OCc2ccc(Cl)cc2)c(-c2ccc(Cl)c(C(F)(F)F)c2)c1=O

Reply:
[106, -29.3, 108, -24.2]

###

# Tested on: SW-620 colon
# RUN_DESCRIPTION: NCI-60 one-dose screen, 48 h (100 = growth as untreated, 0 = no growth, -100 = all killed)
# TEST_SETTINGS: 10 µM unless noted
Compounds without any hit were thinned out: in the full panel of roughly 83,000, 20% have a hit.
Please enter y where growth is greater than or equal to 30%, and n where it is lower.

// known answers, use as guide
MOLECULE: COc1cc2nccc(Oc3ccc(NC(=O)C4(C(=O)Nc5ccc(F)cc5)CC4)cc3)c2cc1OC(=O)c1ccc(N)cc1
STUDY_SYSTEM: SW-620 colon
CAT: y

MOLECULE: CCCc1n(Cc2ccc3ccccc3n2)cc[n+]1Cc1ccc2ccccc2n1
STUDY_SYSTEM: SW-620 colon
CAT: y

MOLECULE: CC(C)c1[nH]ncc1-c1nc2ccc3[nH]ncc3c2c2c1CCCC2
STUDY_SYSTEM: SW-620 colon
CAT: n

Query: Quick check: does `Cc1cc(O)ccc1C1=NN(c2ccc(S(N)(=O)=O)cc2)C(=O)CC1` have growth greater than or equal to 30%?
Reply: n

Query: Hello, I need to know if `O=C(NCCNC(=O)c1cc(S(=O)(=O)NCCc2ccccc2)c(O)c(O)c1O)c1cc(S(=O)(=O)NCCc2ccccc2)c(O)c(O)c1O` has measured growth not below 30%. Thanks!
Reply: y

Query: Evaluate `O=C(Nc1ccc(Oc2ccc(Nc3nc4ccccc4s3)cc2)cc1)Nc1ccc(Cl)c(C(F)(F)F)c1` : growth at minimum 30%?
Reply: n

Query: Form field: growth at least 30%? Entry: `Brc1cccc(-n2ncc3c(Nc4ccc(-c5nnc(-c6ccccc6)o5)cc4)ncnc32)c1`
Reply: y

Query: Identify whether the reported growth of the following molecule is 30% or greater: COc1ccc(C(=O)C(CN(C)C)c2ccccc2)cc1 (centres undefined)
Reply: n

Query: Hi team, for `ClCc1cccc(CSc2ncnc3c2ncn3Cc2cccc(CCl)c2)c1` , is the recorded growth at or above 30%?
Reply: n
